target: Cytochrome P450 2C19 (Homo sapiens) (UniProt P33261); test: Cytochrome P450 Family 2 Subfamily C Member 19 (CYP2C19) small molecule antagonists: luciferase reporter qHTS assay (AID 1671197); details: P450-Glo CYP2C19 enzyme, luciferin luminescence, 1 h; series mostly up to 115 µM; also: nearly all actives have a fitted effect of over 65% in size
Sequence (P33261 whole entry, looked up): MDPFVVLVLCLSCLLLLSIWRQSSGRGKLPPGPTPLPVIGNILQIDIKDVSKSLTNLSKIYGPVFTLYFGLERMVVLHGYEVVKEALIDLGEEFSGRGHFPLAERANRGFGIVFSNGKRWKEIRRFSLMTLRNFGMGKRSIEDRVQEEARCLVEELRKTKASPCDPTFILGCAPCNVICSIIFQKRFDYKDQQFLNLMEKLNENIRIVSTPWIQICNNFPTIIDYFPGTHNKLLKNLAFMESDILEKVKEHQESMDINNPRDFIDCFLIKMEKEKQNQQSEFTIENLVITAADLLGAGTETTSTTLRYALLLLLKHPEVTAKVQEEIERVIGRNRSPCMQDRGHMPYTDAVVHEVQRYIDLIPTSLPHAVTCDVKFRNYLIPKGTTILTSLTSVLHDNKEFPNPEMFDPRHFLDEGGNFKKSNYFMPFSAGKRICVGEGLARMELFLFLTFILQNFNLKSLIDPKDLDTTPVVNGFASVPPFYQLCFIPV
Results filed as inconclusive are left out. Calls of active or inactive are those of the source. Calls follow the shape of the dose curve; as a rule, active = well fitted inhibition curve with a large enough effect in the repeat runs; inconclusive = weak or mixed curves; inactive = no such curve, though single readings can be large or run the other way.
Write down one outcome, taken from active, inactive

>>> df
                                compound  classification
0               Clc1nc(Cl)c(Cl)c(Cl)c1Cl          active
1                       Cc1ccc(C)c(O)c1C        inactive
2                       CCCCCCCCCC(=O)OC        inactive
3                      Nc1ncnc2nc[nH]c12        inactive
4  C=C(C)C1CC=C(C)CC1 (stereo not given)        inactive

Q: Status in this test for `Cc1c(C(N)=O)cc([N+](=O)[O-])cc1[N+](=O)[O-]` ?
Ans: inactive

Q: Status in this test for `O=C(O)c1ccccc1Nc1cccc(C(F)(F)F)c1` ?
Ans: inactive

Q: Status in this test for `C=C(C)C(=O)OCCOC(=O)C(=C)C` ?
Ans: inactive

Q: Status in this test for `COc1cccc2c1C(=O)c1c(O)c3c(c(O)c1C2=O)C[C@@](O)(C(=O)CO)C[C@@H]3O[C@H]1C[C@H](N)[C@H](O)[C@H](C)O1` ?
Ans: inactive

Q: Status in this test for `Nc1ccc(Cl)cc1Cl` ?
Ans: inactive

====

assay: qHTS assay for small molecule disruptors of the mitochondrial membrane potential (AID 720635); settings: HepG2 mitochondrial membrane potential, Mito-MPS dye ratio; series mostly up to 83.2 µM; also: % is scaled to controls: 0 for no effect and ±100 for the full control effect
Results filed as inconclusive are left out. The source made the active and inactive calls. Calls come from the whole dose curve; as a rule, active = well fitted inhibition curve with a large enough effect in the signal ratio in the repeat runs; inconclusive = weak or mixed curves, or effect the other way; inactive = flat fitted curve, though single readings scatter; the % refers to the signal ratio.
reported metric: outcome

>>> print(df.to_string())
                                   compound  reported_metric  measured_result
0  C[C@]12CC[C@H]3[C@@H](CCC4=CC(=O)CC[C@@]43C)[C@@H]1CC[C@@H]2C(=O)CO          outcome         inactive
1                CN(C)CCN(Cc1cccs1)c1ccccn1          outcome         inactive
2  COc1ccc(OC)c(C(O)CNC(=O)CN)c1 (stereo not drawn)          outcome         inactive

====

experiment: qHTS assay to identify small molecule agonists of the sonic hedgehog signaling (Shh) pathway - cell viability counter screen (AID 1259366); conditions: NIH/3T3 Gli1-Luc viability, CellTiter-Fluor, 24 h; series mostly up to 92.4 µM; also: nearly all actives have a fitted effect of over 50% in size
Records with an inconclusive call do not appear. The source made the active and inactive calls. Calls come from the whole dose curve; as a rule, active = well fitted cell-killing curve with a large enough effect in the repeat runs; inconclusive = weak or mixed curves, or effect the other way; inactive = flat fitted curve, though single readings scatter.
Write down one outcome, taken from true (1) for active, false (0) for inactive

Solved cases (6 shown):
In [3]: df
Out[3]:
                                   compound  classification
0  C[C@]12CC[C@H]3[C@@H](CCC4=CC(=O)CC[C@@]43C)[C@@H]1CC[C@@H]2C(=O)CO       false (0)
1                            CC(=O)c1ccccn1       false (0)
2                              C/C=C/C(=O)O       false (0)
3                              CCCCCCCCCCCO       false (0)
4                               Cc1ncc[nH]1       false (0)
5            Cc1[nH]c(=O)c(C#N)cc1-c1ccncc1       false (0)

Q: Status in this test for c1cc(N(CC2CO2)CC2CO2)ccc1OCC1CO1 (stereo unspecified) ?
Ans: true (1)

Q: Status in this test for `OCCO` ?
Ans: false (0)

Q: Status in this test for `O=c1oc(=O)c2cc3c(=O)oc(=O)c3cc12` ?
Ans: false (0)

Q: Status in this test for `CCCCC/C=C/C=C/C=O` ?
Ans: false (0)

Q: Status in this test for `O=C(Nc1ccc(Cl)cc1)Nc1ccc(Cl)c(Cl)c1` ?
Ans: false (0)

Q: Status in this test for `S=C(NC1CCCCC1)NC1CCCCC1` ?
Ans: false (0)

Q: Status in this test for `CN(C)c1nc(N(C)C)nc(N(C)C)n1` ?
Ans: false (0)

Q: Status in this test for `O=C(/C=C/c1ccccc1)OCc1ccccc1` ?
Ans: false (0)

Q: Status in this test for `O=C(COc1ccc(Cl)cc1)N1CCN(Cc2ccc3c(c2)OCO3)CC1` ?
Ans: false (0)

Q: Status in this test for `Nc1ncn([C@@H]2O[C@H](CO)[C@@H](O)[C@H]2O)c(=O)n1` ?
Ans: false (0)
